- Test system: MCF7 breast
- test_description: NCI-60 one-dose screen, 48 h (100 = growth as untreated, 0 = no growth, -100 = all killed)
- test_context: 10 µM unless noted
Compounds without any hit were thinned out: in the full panel of roughly 83,000, 20% have a hit.
Label scheme for growth: lower than 60% is Condition not met, 60% and above is Condition met.

{"compound": "CCOC(=O)C1OC2(CCCC2)OC1C(=O)OCC (stereo not drawn)", "class": "Condition met"}
{"compound": "CCOC(=O)c1ccc2c(c1)[n+](=O)c(C(=O)c1ccc3ccccc3c1)c(C(F)(F)F)n2[O-]", "class": "Condition not met"}
{"compound": "O=c1nc(-c2ccccc2)c2cc(-c3ccc(N4CCOCC4)cc3)ccc2[nH]1", "class": "Condition met"}
{"compound": "CCN1C(=O)/C(=C/N2N=C(c3ccc(Cl)cc3)CC2c2ccc(OC)cc2)SC1=S (stereo not drawn)", "class": "Condition met"}
{"compound": "Oc1c(C(Nc2ccccc2Br)c2ccccc2)ccc2cccnc12 (stereo not drawn)", "class": "Condition not met"}
{"compound": "CCCCc1nc(Cl)c(C2CC(c3ccc(S(N)(=O)=O)cc3)=NN2c2cc(Cl)cc(Cl)c2)[nH]1 (stereo not drawn)", "class": "Condition not met"}
{"compound": "COc1ccc(C(=O)O)cc1.[Ag]", "class": "Condition met"}
{"compound": "CO[C@H](C(=O)[C@@H](O)[C@@H](C)O)[C@@H]1Cc2cc3cc(O[C@H]4C[C@@H](O[C@H]5C[C@@H](O)[C@H](O)C(C)O5)[C@H](O)C(C)O4)c(C)c(O)c3c(O)c2C(=O)[C@H]1O[C@H]1C[C@@H](O[C@H]2C[C@@H](O[C@H]3C[C@](C)(O)C(=O)C(C)O3)[C@@H](O)C(C)O2)[C@H](O)C(C)O1 (stereo partly drawn)", "class": "Condition not met"}
{"compound": "COc1ccc(C2c3cccn3-c3ccccc3N2C(C)=O)cc1 (stereo not drawn)", "class": "Condition met"}
{"compound": "C[N+](C)(C)CCCCCCCCCC[N+](C)(C)C", "class": "Condition met"}
{"compound": "CCCCOc1nc2ccc(C)cc2cc1/C=C/C(=O)/C=C(O)/C=C/c1cc2cc(C)ccc2nc1OCCCC", "class": "Condition met"}
{"compound": "C#C[C@]1(O)CC[C@H]2[C@@H]3CC=C4c5sc(-c6cccc(Br)c6)nc5CC[C@]4(C)[C@H]3CC[C@@]21C", "class": "Condition not met"}
{"compound": "O=C(Nc1ccncc1)C(=O)c1cn(S(=O)(=O)c2cccc(Cl)c2F)c2ccccc12", "class": "Condition not met"}
{"compound": "COc1cc(C)c(Cl)cc1C1=NN(c2ccc(S(N)(=O)=O)cc2)C(/C=C/c2ccccc2)C1 (stereo not drawn)", "class": "Condition not met"}
{"compound": "O=C1C=CN2C(=O)CC=CC2[C@@H]1O (stereo partly drawn)", "class": "Condition met"}
{"compound": "O=C(Nc1cccc(N=Cc2c(O)ccc3ccccc23)c1)c1ccccc1", "class": "Condition met"}
{"compound": "C=C1C(=O)O[C@H]2[C@H]1CC/C(COC(=O)N[C@@H](Cc1c[nH]c3ccccc13)C(=O)OC)=C\\CC[C@@]1(C)O[C@@H]21", "class": "Condition not met"}
{"compound": "Fc1ccc(-c2nc(-c3ccc(-c4nc5ccc(F)cc5[nH]4)cc3)no2)cc1", "class": "Condition not met"}

Data origin, for the record: PubChem BioAssay (NCI)
